tested on: SNB-19 CNS; experiment: NCI tumour cell line growth inhibition, 48 h
# reported TGI; entries follow

- line.notation: "C=CCN(c1cc(OCc2ccccc2)c2c(c(C)cn2S(=O)(=O)c2ccc([N+](=O)[O-])cc2)c1[N+](=O)[O-])S(C)(=O)=O"
  TGI: "> 100 µM"

Input C(=C\c1cc(CCc2nc3ccccc3[nH]2)[nH]n1)/c1ccccc1 . Output TGI: > 100 µM

Recorded TGI (compound COc1ccc2c3c([nH]c2c1)C(=O)c1nc(C)ccc1C3=O ): > 100 µM

###

system: M14 melanoma; assay: NCI tumour cell line growth inhibition, 48 h
quantity.measured: TGI

Observe how each entry below is paired with its result.
- compound: "COc1ccc(SS(=O)(=O)c2ccc(OC)cc2)cc1"
  subject.of.test: "M14 melanoma"
  TGI: "41.6 µM"
- compound: "COc1ccc(N2C(=O)C3c4[nH]c5cccc(Cl)c5c4C4CCC(C(C)(C)C)CC4C3C2=O)cc1 (stereo unspecified)"
  subject.of.test: "M14 melanoma"
  TGI: "> 100 µM"
- compound: "N/N=C(\\CCN1CCCC1)CC(c1ccccc1)c1c(O)c2ccccc2oc1=O (stereo unspecified)"
  subject.of.test: "M14 melanoma"
  TGI: "> 100 µM"

Note to self: TGI recorded for COc1ccc2c(c1)/C(=C\c1c(-c3ccccc3)nc3n1CCS3)C(=O)N2 was 23 µM

Looking up COc1cc(Cl)cc(-c2nn(-c3cccc(NC(=O)c4cccc(C(F)(F)F)c4)c3)cc2-c2ccncc2)c1 , I found its TGI recorded as > 100 µM

All figures here come from PubChem BioAssay (NCI).
